These measurements were taken from patent US9102667B2.

# test_target: AKAP-PKA interaction (Homo sapiens)
# Sequence (P13861 2-404 limits assumed): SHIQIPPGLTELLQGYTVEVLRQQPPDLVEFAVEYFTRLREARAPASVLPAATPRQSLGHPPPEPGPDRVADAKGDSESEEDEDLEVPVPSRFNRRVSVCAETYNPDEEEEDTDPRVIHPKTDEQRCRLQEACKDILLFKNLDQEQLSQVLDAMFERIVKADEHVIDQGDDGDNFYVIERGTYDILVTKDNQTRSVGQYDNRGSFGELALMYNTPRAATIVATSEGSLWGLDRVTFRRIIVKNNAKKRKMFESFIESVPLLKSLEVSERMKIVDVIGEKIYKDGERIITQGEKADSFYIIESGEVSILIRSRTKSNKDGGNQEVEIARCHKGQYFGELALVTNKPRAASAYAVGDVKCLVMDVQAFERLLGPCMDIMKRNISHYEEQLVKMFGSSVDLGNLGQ
# protocol: AKAP-PKA interaction (disruption) assays of Examples 1-3: alpha screen, surface plasmon resonance, ELISA (combined classification)
# Format: binding
# experimental_setup: class from IC50 values in assays of Examples 1, 2 or 3; read-out: Activity (IC50 class)

- compound: "COC(=O)c1csc(N/C=C2\\Sc3ccccc3C2=O)n1 [T2/18]"
  IC50: "< 150 µM"
- compound: "O=C(O)c1ccc(N/C=C2\\Sc3ccccc3C2=O)cc1 [T2/59]"
  IC50: "< 250 µM"
- compound: "O=C1/C(=C/Nc2ccc3scnc3c2)Sc2ccccc21 [T2/29]"
  IC50: "250 to 750 µM"
- compound: "O=C1/C(=C/Nc2nc3cc(Cl)ccc3o2)Sc2ccccc21 [T2/5]"
  IC50: "250 to 750 µM"
- compound: "O=C1/C(=C/Nc2nc3ccc(C(F)(F)F)cc3s2)Sc2ccccc21 [T2/27]"
  IC50: "250 to 750 µM"
- compound: "CNC(=O)c1cnc(N/C=C2\\Sc3ccccc3C2=O)s1 [T2/20]"
  IC50: "< 250 µM"
- compound: "O=C1/C(=N/Nc2nccs2)Sc2ccccc21 [T2/50]"
  IC50: "< 25 µM"
- compound: "O=C1/C(=C/Nc2ncc([N+](=O)[O-])s2)Sc2ccccc21 [T2/12]"
  IC50: "< 25 µM"
- compound: "O=C1/C(=C\\Nc2ccc([N+](=O)[O-])cc2)Sc2ccccc21 [T2/34]"
  IC50: "250 to 750 µM"
